Tested on: HEK-293T
Test: Multiplex assay against HEK293T
Format: toxicity, cell-based
Conditions: human, 12 h, 1 µM, compound concentration 1 uM, number of replicates 2
*1 amine or outer side, *2 acyl side, *3 side chain or, on linkers, in order; H or OH if unused. Where a SMILES comes first, the peptide text is derived from it. Bridges are numbered along the chain shown (N, C = ends). Roman numbers before positions name the chains, in order. [ ]: non-standard residue; d: D form. Hexamethylenediamine = C(CCCN[*:2])CCN[*:1]; Dip = N[C@H](C(=O)O)C(c1ccccc1)c1ccccc1; Chg = N[C@H](C(=O)O)C1CCCCC1; NMeA = CN[C@@H](C)C(=O)O
measured-parameter: Population Membrane Permeable-Phenotype (%)
Answer with the value and then the unit.

compound=COC(=O)Nc1nc2c(s1)-c1c(c(-c3cccnc3)nn1-c1ccc(C3(N(C)C)CC3)cc1)CC2.Cl.Cl reported_result=1%
compound=O=C1NC(=O)C(c2ccccc2[N+](=O)[O-])=C1Nc1ccc(O)c(Cl)c1 reported_result=2%
compound=COc1cc(C(N)=O)ccc1Nc1ncc2c(n1)N(CCC(C)C)[C@H](C)C(=O)N2C reported_result=2%
compound=CNS(=O)(=O)c1ccc(N(C)C)c(Nc2ncnc3cc(OC)c(OC)cc23)c1 reported_result=2%
compound=COc1ccc(F)c(F)c1C(=O)c1cnc(NC2CCN(S(C)(=O)=O)CC2)nc1N reported_result=4%
compound=CN1CCc2cc(Nc3ncc(C(F)(F)F)c(NCc4cc[nH]n4)n3)ccc2C1 reported_result=1%

Query: Consider the compound shown here: CN[C@@H](C)C(=O)N[C@H](C(=O)N1CCC[C@H]1C(=O)N[C@H](C(=O)NCCCCCCNC(=O)[C@@H](NC(=O)[C@@H]1CCCN1C(=O)[C@@H](NC(=O)[C@H](C)NC)C1CCCCC1)C(c1ccccc1)c1ccccc1)C(c1ccccc1)c1ccccc1)C1CCCCC1 (I: H-[NMeA][Chg]P[Dip] / II: H-[NMeA][Chg]P[Dip]; linker I:C-II:C via Hexamethylenediamine) What is its recorded Population Membrane Permeable-Phenotype (%)?
Response: 2%

Query: Consider the compound shown here: CC(C)S(=O)(=O)c1ccccc1Nc1nc(N[C@@H]2CCCN(CCCCCCCNC(=O)COc3cccc4c3C(=O)N(C3CCC(=O)NC3=O)C4=O)C2)ncc1Cl (stereo not given in full) What is its recorded Population Membrane Permeable-Phenotype (%)?
Response: 0%

Query: Consider the compound shown here: CC(C)c1cc(-c2ccc(F)c3ccccc23)nc(N)n1 What is its recorded Population Membrane Permeable-Phenotype (%)?
Response: 2%

Query: Consider the compound shown here: COc1ccc2cc(S(=O)(=O)N[C@H](CC(=O)N[C@H](Cc3ccc(CN4[C@H](C)CCC[C@@H]4C)cc3)C(=O)N(C)C(C)C)c3ccc4c(c3)OCO4)ccc2c1.Cl What is its recorded Population Membrane Permeable-Phenotype (%)?
Response: 5%
